# IC50 per entry
SUBJECT OF TEST: PDGFRα (Homo sapiens (Human))
Sequence (P16234 24-1089): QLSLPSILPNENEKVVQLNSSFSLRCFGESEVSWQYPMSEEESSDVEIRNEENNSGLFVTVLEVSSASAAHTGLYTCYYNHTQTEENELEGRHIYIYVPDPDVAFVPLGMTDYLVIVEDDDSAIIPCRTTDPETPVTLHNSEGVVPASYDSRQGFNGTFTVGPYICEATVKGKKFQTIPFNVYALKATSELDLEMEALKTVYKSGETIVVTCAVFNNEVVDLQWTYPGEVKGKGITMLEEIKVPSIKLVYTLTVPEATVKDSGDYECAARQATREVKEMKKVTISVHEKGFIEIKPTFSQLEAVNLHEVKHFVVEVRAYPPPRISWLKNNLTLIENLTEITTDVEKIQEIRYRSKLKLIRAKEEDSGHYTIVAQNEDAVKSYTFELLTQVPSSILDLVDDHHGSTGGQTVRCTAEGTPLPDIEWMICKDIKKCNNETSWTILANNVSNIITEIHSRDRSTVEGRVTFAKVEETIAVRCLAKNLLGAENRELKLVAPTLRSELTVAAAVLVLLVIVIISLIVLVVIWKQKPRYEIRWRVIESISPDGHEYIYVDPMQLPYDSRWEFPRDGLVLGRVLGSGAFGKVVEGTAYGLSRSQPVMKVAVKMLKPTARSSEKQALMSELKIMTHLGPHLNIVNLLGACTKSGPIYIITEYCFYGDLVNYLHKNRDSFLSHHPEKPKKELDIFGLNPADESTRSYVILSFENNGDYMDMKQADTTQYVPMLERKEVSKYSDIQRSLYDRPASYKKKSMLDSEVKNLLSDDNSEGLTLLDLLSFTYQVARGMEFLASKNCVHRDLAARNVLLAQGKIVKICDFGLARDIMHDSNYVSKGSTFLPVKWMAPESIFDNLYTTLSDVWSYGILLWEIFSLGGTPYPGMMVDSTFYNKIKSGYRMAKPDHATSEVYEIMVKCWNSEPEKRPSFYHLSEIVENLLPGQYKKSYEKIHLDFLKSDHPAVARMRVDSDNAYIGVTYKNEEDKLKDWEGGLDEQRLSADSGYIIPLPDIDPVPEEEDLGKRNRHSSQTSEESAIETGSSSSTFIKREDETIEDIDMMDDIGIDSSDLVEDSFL
ASSAY EXPLANATION: PDGFRα kinase enzyme assay (Promega PDGFRα Kinase Enzyme System, ADP-Glo)
Assay type: biochemical
CONDITION DESCRIPTION: 11-point dose response, 10,000 nM to 0.169 nM; 150 uM ATP; BLQ = below limit of quantitation; read-out: IC50 Values on PDGFRα Kinase Inhibition, IC50
// units = nM; emit number, no label

Look over these answered cases.
Cn1cc(-c2ccc3c(N4CCCN(C(=O)OC(C)(C)C)CC4)cnn3c2)cn1 : 2420
COCCn1cc(-c2ccn3c(N4CCN(C(=O)OC(C)(C)C)CC4)cnc3n2)cn1 : 3420
C[C@@H](OC(=O)N1CCN(c2cnn3cc(-c4cnn(C)c4)ccc23)CC1)c1ccccc1 : 7.17

[ask] Name the recorded IC50 for Cn1cc(-c2ccc3c(N4CCN(S(=O)(=O)NCc5ccc(C(F)(F)F)cc5)CC4)cnn3c2)cn1 .
[reply] 5.96

[ask] Name the recorded IC50 for Cn1cc(-c2ccc3c(N4CCN(c5ncc(C(O)c6ccccn6)cn5)CC4)cnn3c2)cn1 (stereo not shown) .
[reply] 168

[ask] Name the recorded IC50 for Cn1cc(-c2ccc3c(N4CCN(c5ncc(Cc6ccncc6)cn5)CC4)cnn3c2)cn1 .
[reply] 662

[ask] Name the recorded IC50 for CC(C)(C)OC(=O)N1CCN(c2cnn3cc(-c4cn(CCO)cn4)ccc23)CC1 .
[reply] 363
